Target or system: Cyclin-dependent kinase 1 (Homo sapiens);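 note: enzyme assay on the CDK1/cyclin B complex, reported as mean percent inhibition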
Measurement conditions: at 0.1 µM
Would you mind labelling by inhibition? At or over 4% is 1 (yes), under is 0 (no).

Nc1nonc1-c1nc2cnccc2n1C1CCCCC1 1 (yes)

Hi, just wondering whether `CCn1c(-c2nonc2N)nc2c(C#CC(C)(C)O)nc(O[C@@H](CN)c3ccccc3)cc21` shows inhibition of 4% or higher. 1 (yes)

Hi, just wondering whether `CCn1c(-c2nonc2N)nc2c(C#CCN)ncc(OCCCN)c21` shows inhibition of 4% or higher. 0 (no)

Hi, just wondering whether `COc1cccc(-n2ncc3c(N/N=C/c4ccncc4)ncnc32)c1` shows inhibition of 4% or higher. 1 (yes)

Hi, just wondering whether `COc1cc(C=NNc2ncnc3c2cnn3Cc2ccccc2)ccc1O` shows inhibition of 4% or higher. 0 (no)

----------
Tested on: Tyrosine-protein kinase ABL1 (Homo sapiens), P00519 [H396P]
Measurement conditions: at 0.1 µM
Kindly state inhibition for each of the entries shown.
Give bare numbers, in %.

CCn1c(-c2nonc2N)nc2c(C#CC(C)(C)O)ncc(OCC3CCNCC3)c21 1.89
CCn1c(-c2nonc2N)nc2c(C#CC(C)(C)O)ncc(OC[C@@H]3CCCN3)c21 1.51

# ---- query compound ----
# lookup: Tyrosine-protein kinase ABL1 (Homo sapiens), P00519 [H396P] inhibition, key = `COc1cccc(COc2cc(-n3cnc4ccccc43)sc2C(N)=O)c1` -1.23

----------
Kindly state inhibition for each of the entries shown.
Target or system: Cyclin-dependent kinase 5 (Homo sapiens);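 note: mean value of inhibition, with the enzyme tested as CDK5/p35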
Measurement conditions: at 1 µM
One number for each entry, in %.

CCn1c(-c2nonc2N)nc2c(C#CC(C)(C)O)ncc(OC[C@@H]3CCCN3)c21 -0.81
NS(=O)(=O)c1ccc(-c2ccc3c(NC(=O)C4CC4)n[nH]c3c2)cc1 4.41
COc1cc2c(cc1Nc1nc(Nc3ccsc3C(N)=O)c3cc[nH]c3n1)N(C(=O)CN(C)C)CCC2 -0.24

Dear reader, for each entry below, please note its inhibition.
1. Fc1ccc(-c2ncn(C3CCNCC3)c2-c2ccnc(Oc3ccccc3)n2)cc1
2. Nc1nonc1-c1nc2cnccc2n1C1CCCCC1

1. -2.14
2. 18

----------
Target or system: Calcium/calmodulin-dependent protein kinase type 1D (Homo sapiens) (UniProt Q8IU85);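 note: reported figure is the mean percent inhibition of CAMK1D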
Sequence (Q8IU85 whole entry, looked up): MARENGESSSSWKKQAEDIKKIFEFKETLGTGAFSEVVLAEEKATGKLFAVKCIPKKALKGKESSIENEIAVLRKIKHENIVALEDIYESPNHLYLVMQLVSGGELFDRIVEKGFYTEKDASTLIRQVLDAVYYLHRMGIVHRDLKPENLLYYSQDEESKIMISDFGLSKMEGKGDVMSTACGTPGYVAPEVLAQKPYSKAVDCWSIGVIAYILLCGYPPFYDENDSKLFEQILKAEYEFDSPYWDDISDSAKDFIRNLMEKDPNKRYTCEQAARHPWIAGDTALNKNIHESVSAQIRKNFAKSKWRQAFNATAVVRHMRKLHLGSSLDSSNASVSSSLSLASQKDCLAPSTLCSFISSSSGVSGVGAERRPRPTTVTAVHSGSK
Measurement conditions: at 1 µM
Kindly state inhibition for each of the entries shown.
One number for each entry, in %.

// below: answered compounds
NS(=O)(=O)c1ccc(-c2ccc3c(NC(=O)C4CC4)n[nH]c3c2)cc1 0.84
COc1cccc(COc2cc(-n3cnc4ccccc43)sc2C(N)=O)c1 0.38
NC(=O)c1sc(-n2cnc3cc(C(F)(F)F)ccc32)cc1OCc1ccccc1Br 1.53
CCn1c(-c2nonc2N)nc2c(C#CC(C)(C)O)ncc(OC[C@@H]3CCCN3)c21 0.84
CCn1c(-c2nonc2N)nc2c(C#CCN)ncc(OCCCN)c21 -0.05

Tell me inhibition reported for `CCn1c(-c2nonc2N)nc2c(C#CC(C)(C)O)nc(O[C@@H](CN)c3ccccc3)cc21` 29.4

----------
Kindly state inhibition for each of the entries shown.
Target or system: Epidermal growth factor receptor (Homo sapiens);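 note: values are mean inhibition figures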
Measurement conditions: at 1 µM
Answers are plain numbers, in %.

Dear reader, for each entry below, please note its inhibition.
1. COc1cc(C=NNc2ncnc3c2cnn3Cc2ccccc2)ccc1O
2. CCn1c(-c2nonc2N)nc2c(C#CCN)ncc(OCCCN)c21
3. CCn1c(-c2nonc2N)nc2c(C#CC(C)(C)O)nc(O[C@@H](CN)c3ccccc3)cc21
4. CCn1c(-c2nonc2N)nc2c(C#CC(C)(C)O)ncc(OC[C@@H]3CCCN3)c21
5. Cc1cc(-c2ccco2)cc(C)c1/C=C/c1cncc(-c2nn[nH]n2)c1
6. NS(=O)(=O)c1ccc(N/C=C2\C(=O)Nc3ccc4ncsc4c32)cc1
7. COc1cccc(COc2cc(-n3cnc4ccccc43)sc2C(N)=O)c1

1: 66.8; 2: 8.32; 3: 7.41; 4: 1.8; 5: 6.27; 6: 5.22; 7: 1.95

Tell me inhibition reported for `NC(=O)c1sc(-n2cnc3cc(C(F)(F)F)ccc32)cc1OCc1ccccc1Br` 6.56

----------
Target or system: Calcium/calmodulin-dependent protein kinase type II subunit alpha (Homo sapiens) (UniProt Q9UQM7);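 note: reported value is a mean percent inhibition of CAMK2A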
Sequence (Q9UQM7 whole entry): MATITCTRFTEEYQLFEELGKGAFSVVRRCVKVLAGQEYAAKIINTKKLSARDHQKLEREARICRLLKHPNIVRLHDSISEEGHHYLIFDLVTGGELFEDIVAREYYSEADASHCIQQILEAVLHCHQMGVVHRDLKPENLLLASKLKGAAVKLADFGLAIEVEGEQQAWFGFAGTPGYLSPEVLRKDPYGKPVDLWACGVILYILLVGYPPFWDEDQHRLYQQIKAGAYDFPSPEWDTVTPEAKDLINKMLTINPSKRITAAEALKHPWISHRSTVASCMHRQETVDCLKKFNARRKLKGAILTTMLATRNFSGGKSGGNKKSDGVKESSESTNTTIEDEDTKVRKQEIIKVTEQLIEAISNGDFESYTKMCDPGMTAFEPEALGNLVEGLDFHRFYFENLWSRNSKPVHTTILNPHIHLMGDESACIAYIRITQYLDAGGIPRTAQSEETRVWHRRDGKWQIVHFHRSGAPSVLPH
Measurement conditions: at 1 µM
Test readout: inhibition (%)
Numbers only, in %.

COc1cc(C=NNc2ncnc3c2cnn3Cc2ccccc2)ccc1O -4.25
COc1cccc(COc2cc(-n3cnc4ccccc43)sc2C(N)=O)c1 -0.42
NC(=O)c1sc(-n2cnc3cc(C(F)(F)F)ccc32)cc1OCc1ccccc1Br -0.17

Dear reader, for each entry below, please note its inhibition.
1. CCn1c(-c2nonc2N)nc2c(C#CC(C)(C)O)ncc(OC[C@@H]3CCCN3)c21
2. CCn1c(-c2nonc2N)nc2c(C#CC(C)(C)O)ncc(OCC3CCNCC3)c21
3. COc1cc2c(cc1Nc1nc(Nc3ccsc3C(N)=O)c3cc[nH]c3n1)N(C(=O)CN(C)C)CCC2
4. CCn1c(-c2nonc2N)nc2c(C#CCN)ncc(OCCCN)c21
5. CCn1c(-c2nonc2N)nc2c(C#CC(C)(C)O)nc(O[C@@H](CN)c3ccccc3)cc21
6. NS(=O)(=O)c1ccc(N/C=C2\C(=O)Nc3ccc4ncsc4c32)cc1

1: -2.05; 2: 2.25; 3: -4.91; 4: -1.33; 5: 1.68; 6: 3.49

----------
Target or system: Ribosomal protein S6 kinase alpha-2 (Homo sapiens);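 note: value is the mean inhibition of RSK3 within GSK PKIS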
Measurement conditions: at 1 µM
Test readout: inhibition (%)
Answers are plain numbers, in %.

CCn1c(-c2nonc2N)nc2c(C#CC(C)(C)O)ncc(OC[C@@H]3CCCN3)c21 13.3
NS(=O)(=O)c1ccc(-c2ccc3c(NC(=O)C4CC4)n[nH]c3c2)cc1 2.46

# ---- query compound ----
Tell me inhibition reported for `COc1cc(C=NNc2ncnc3c2cnn3Cc2ccccc2)ccc1O` 1.82

----------
Target or system: Proto-oncogene tyrosine-protein kinase receptor Ret (Homo sapiens) (UniProt P07949);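 note: each listed value is an averaged inhibition figure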
Sequence (P07949 whole entry): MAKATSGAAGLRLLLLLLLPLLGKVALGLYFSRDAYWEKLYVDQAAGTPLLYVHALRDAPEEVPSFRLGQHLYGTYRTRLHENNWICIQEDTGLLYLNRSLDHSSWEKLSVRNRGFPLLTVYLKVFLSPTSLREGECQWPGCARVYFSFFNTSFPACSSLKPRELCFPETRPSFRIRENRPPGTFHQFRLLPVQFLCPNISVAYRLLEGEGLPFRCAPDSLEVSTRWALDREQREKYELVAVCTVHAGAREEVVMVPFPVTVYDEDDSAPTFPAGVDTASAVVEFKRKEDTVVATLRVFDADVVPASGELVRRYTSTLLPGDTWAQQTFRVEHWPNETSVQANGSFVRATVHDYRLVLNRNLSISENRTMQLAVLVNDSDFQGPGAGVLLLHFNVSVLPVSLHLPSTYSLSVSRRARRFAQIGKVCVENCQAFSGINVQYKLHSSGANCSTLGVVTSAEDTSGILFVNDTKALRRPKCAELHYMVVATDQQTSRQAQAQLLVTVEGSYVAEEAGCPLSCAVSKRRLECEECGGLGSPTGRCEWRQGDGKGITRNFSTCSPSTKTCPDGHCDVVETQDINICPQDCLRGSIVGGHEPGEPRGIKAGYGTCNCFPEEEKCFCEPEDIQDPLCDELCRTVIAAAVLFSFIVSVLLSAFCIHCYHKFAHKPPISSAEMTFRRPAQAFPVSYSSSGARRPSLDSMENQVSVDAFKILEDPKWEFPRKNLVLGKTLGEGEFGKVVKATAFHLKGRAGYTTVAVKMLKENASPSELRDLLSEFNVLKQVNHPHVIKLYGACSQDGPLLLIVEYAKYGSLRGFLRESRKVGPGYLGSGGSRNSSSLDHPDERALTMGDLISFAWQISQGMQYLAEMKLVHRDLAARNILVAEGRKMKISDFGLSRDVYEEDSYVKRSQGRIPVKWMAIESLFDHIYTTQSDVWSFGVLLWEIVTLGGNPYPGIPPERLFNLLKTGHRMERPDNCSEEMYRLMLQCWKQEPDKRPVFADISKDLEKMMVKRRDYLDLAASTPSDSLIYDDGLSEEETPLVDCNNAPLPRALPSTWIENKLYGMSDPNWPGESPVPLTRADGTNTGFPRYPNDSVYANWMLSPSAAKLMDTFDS
Measurement conditions: at 1 µM
Test readout: inhibition

// below: answered molecules
NS(=O)(=O)c1ccc(-c2ccc3c(NC(=O)C4CC4)n[nH]c3c2)cc1 8.48%
CCn1c(-c2nonc2N)nc2c(C#CC(C)(C)O)ncc(OCC3CCNCC3)c21 26.3%
Cc1cc(-c2ccco2)cc(C)c1/C=C/c1cncc(-c2nn[nH]n2)c1 3.21%

Tell me inhibition reported for `Fc1ccc(-c2ncn(C3CCNCC3)c2-c2ccnc(Oc3ccccc3)n2)cc1` 7.03%

----------
Target or system: Calcium/calmodulin-dependent protein kinase type II subunit delta (Homo sapiens);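 note: percent inhibition values are means, taken from the GSK PKIS kinase profiling set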
Measurement conditions: at 0.1 µM
Test readout: inhibition (%)
Numbers only, in %.

// below: answered compounds
COc1cc2c(cc1Nc1nc(Nc3ccsc3C(N)=O)c3cc[nH]c3n1)N(C(=O)CN(C)C)CCC2 3.02
Fc1ccc(-c2ncn(C3CCNCC3)c2-c2ccnc(Oc3ccccc3)n2)cc1 1.37
CCn1c(-c2nonc2N)nc2c(C#CC(C)(C)O)nc(O[C@@H](CN)c3ccccc3)cc21 -0.76
COc1cc(C=NNc2ncnc3c2cnn3Cc2ccccc2)ccc1O -4.62
NS(=O)(=O)c1ccc(N/C=C2\C(=O)Nc3ccc4ncsc4c32)cc1 4.43
CCn1c(-c2nonc2N)nc2c(C#CC(C)(C)O)ncc(OCC3CCNCC3)c21 2.49

Dear reader, for each entry below, please note its inhibition.
1. NS(=O)(=O)c1ccc(-c2ccc3c(NC(=O)C4CC4)n[nH]c3c2)cc1
2. COc1cccc(COc2cc(-n3cnc4ccccc43)sc2C(N)=O)c1

1: 2.57; 2: 0.07

Tell me inhibition reported for `NC(=O)c1sc(-n2cnc3cc(C(F)(F)F)ccc32)cc1OCc1ccccc1Br` 2.18

----------
Target or system: Protein kinase C gamma type (Homo sapiens);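 note: each value is an averaged percent inhibition of the enzyme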
Measurement conditions: at 1 µM
Would you mind labelling by inhibition? At or over 4% is 1 (yes), under is 0 (no).

Hi, just wondering whether `COc1cc(C=NNc2ncnc3c2cnn3Cc2ccccc2)ccc1O` shows inhibition of 4% or higher. 0 (no)

Hi, just wondering whether `Nc1nonc1-c1nc2cnccc2n1C1CCCCC1` shows inhibition of 4% or higher. 1 (yes)

Hi, just wondering whether `NS(=O)(=O)c1ccc(-c2ccc3c(NC(=O)C4CC4)n[nH]c3c2)cc1` shows inhibition of 4% or higher. 0 (no)

Hi, just wondering whether `CCn1c(-c2nonc2N)nc2c(C#CC(C)(C)O)ncc(OCC3CCNCC3)c21` shows inhibition of 4% or higher. 1 (yes)

Hi, just wondering whether `NS(=O)(=O)c1ccc(N/C=C2\C(=O)Nc3ccc4ncsc4c32)cc1` shows inhibition of 4% or higher. 1 (yes)

Hi, just wondering whether `NC(=O)c1sc(-n2cnc3cc(C(F)(F)F)ccc32)cc1OCc1ccccc1Br` shows inhibition of 4% or higher. 0 (no)

----------
Tested on: Platelet-derived growth factor receptor alpha (Homo sapiens), P16234 [D842V]
Sequence (P16234 whole entry D842V): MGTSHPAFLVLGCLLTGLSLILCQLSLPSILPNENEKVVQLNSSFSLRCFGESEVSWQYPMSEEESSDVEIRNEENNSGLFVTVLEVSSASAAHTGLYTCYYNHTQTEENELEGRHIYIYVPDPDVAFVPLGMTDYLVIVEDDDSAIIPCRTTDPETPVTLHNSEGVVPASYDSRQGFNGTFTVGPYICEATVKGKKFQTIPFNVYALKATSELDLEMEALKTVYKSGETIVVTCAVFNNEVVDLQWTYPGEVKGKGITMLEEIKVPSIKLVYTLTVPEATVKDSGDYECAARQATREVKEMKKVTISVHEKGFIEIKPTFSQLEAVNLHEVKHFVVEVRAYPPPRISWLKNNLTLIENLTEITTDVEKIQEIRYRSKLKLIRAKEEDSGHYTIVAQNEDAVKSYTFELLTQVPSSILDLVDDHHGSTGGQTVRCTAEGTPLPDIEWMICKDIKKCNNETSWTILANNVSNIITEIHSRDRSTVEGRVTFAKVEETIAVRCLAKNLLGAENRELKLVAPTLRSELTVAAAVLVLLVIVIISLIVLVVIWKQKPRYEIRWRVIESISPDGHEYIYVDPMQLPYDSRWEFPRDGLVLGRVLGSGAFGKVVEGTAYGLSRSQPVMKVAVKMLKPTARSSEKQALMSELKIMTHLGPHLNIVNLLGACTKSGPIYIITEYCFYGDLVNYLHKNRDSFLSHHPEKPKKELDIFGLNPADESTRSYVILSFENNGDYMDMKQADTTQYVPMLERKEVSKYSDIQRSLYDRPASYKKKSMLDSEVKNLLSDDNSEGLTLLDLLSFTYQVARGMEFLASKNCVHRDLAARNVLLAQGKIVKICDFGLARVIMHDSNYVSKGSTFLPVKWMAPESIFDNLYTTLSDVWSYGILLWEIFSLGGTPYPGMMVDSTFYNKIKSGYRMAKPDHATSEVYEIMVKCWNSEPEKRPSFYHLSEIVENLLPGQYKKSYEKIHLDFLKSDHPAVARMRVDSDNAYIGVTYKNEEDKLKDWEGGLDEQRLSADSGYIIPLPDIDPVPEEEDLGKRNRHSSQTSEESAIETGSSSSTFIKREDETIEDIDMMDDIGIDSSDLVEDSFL
Measurement conditions: at 0.1 µM
Dear colleague, classification is by inhibition, with ranges listed here: 1 (below 2%), 2 (2% to below 4%), 3 (4% or more)

Fc1ccc(-c2ncn(C3CCNCC3)c2-c2ccnc(Oc3ccccc3)n2)cc1 2
NC(=O)c1sc(-n2cnc3cc(C(F)(F)F)ccc32)cc1OCc1ccccc1Br 3

Sort into band: `CCn1c(-c2nonc2N)nc2c(C#CC(C)(C)O)ncc(OC[C@@H]3CCCN3)c21` 3

Sort into band: `CCn1c(-c2nonc2N)nc2c(C#CC(C)(C)O)ncc(OCC3CCNCC3)c21` 3

Sort into band: `Cc1cc(-c2ccco2)cc(C)c1/C=C/c1cncc(-c2nn[nH]n2)c1` 2

Sort into band: `COc1cccc(-n2ncc3c(N/N=C/c4ccncc4)ncnc32)c1` 3
